Source listed as patent US12071453B2.

ASSAYED_SYSTEM: [35S]-TBPS binding in rat brain cortical membranes
ASSAY_COMMENT: Steroid inhibition of [35S]-TBPS binding, rat brain cortical membranes
TEST_SETTINGS: 3 nM [35S]-TBPS, in the presence of 5 μM GABA, read-out: 35S-TBPS Radioligand Displacement (IC50)
Would you kindly list IC50 for each of these molecules?

{"MOLECULE": "COC[C@]12CC[C@@](C)(O)C[C@H]1CC[C@H]1[C@@H]3CC[C@H](C(=O)Cn4cc(C#N)cn4)[C@@]3(C)CC[C@@H]12", "ATTRIBUTE_MEASURED": "IC50", "TEST_VALUE": "< 10 nM"}
{"MOLECULE": "COC[C@]12CC[C@@](C)(O)C[C@@H]1CC[C@H]1[C@@H]3CC[C@H](C(=O)Cn4nnc5c(F)c(Cl)ccc54)[C@@]3(C)CC[C@@H]12", "ATTRIBUTE_MEASURED": "IC50", "TEST_VALUE": "100 to 500 nM"}
{"MOLECULE": "COC[C@]12CC[C@@](C)(O)C[C@@H]1CC[C@H]1[C@@H]3CC[C@H](C(=O)Cn4nnc5c(Cl)cccc54)[C@@]3(C)CC[C@@H]12", "ATTRIBUTE_MEASURED": "IC50", "TEST_VALUE": "10 to 50 nM"}
{"MOLECULE": "COC[C@]12CC[C@@](C)(O)C[C@H]1CC[C@H]1[C@@H]3CC[C@H](C(=O)Cn4cc(Cl)cn4)[C@@]3(C)CC[C@@H]12", "ATTRIBUTE_MEASURED": "IC50", "TEST_VALUE": "< 10 nM"}
{"MOLECULE": "COC[C@]12CC[C@@](C)(O)C[C@@H]1CC[C@H]1[C@@H]3CC[C@H](C(=O)Cn4nnc5cc(Cl)cnc54)[C@@]3(C)CC[C@@H]12", "ATTRIBUTE_MEASURED": "IC50", "TEST_VALUE": "100 to 500 nM"}
{"MOLECULE": "COC[C@]12CC[C@@](C)(O)C[C@@H]1CC[C@H]1[C@@H]3CC[C@H](C(=O)Cn4nc5ccc(OC(F)(F)F)cc5n4)[C@@]3(C)CC[C@@H]12", "ATTRIBUTE_MEASURED": "IC50", "TEST_VALUE": "50 to 100 nM"}

Look at each molecule and report its IC50.
1. COC[C@]12CC[C@@](C)(O)C[C@@H]1CC[C@H]1[C@@H]3CC[C@H](C(=O)Cn4ncc5nccnc54)[C@@]3(C)CC[C@@H]12
2. COC[C@]12CC[C@@](C)(O)C[C@H]1CC[C@H]1[C@@H]3CC[C@H](C(=O)Cn4nnc(C)n4)[C@@]3(C)CC[C@@H]12

## Result
1. 100 to 500 nM
2. 100 to 500 nM

Look at each molecule and report its IC50.
1. COC[C@]12CC[C@@](C)(O)C[C@@H]1CC[C@H]1[C@@H]3CC[C@H](C(=O)Cn4nc5ccccc5n4)[C@@]3(C)CC[C@@H]12
2. COC[C@]12CC[C@@](C)(O)C[C@@H]1CC[C@H]1[C@@H]3CC[C@H](C(=O)Cn4nnnc4C)[C@@]3(C)CC[C@@H]12
3. COC[C@]12CC[C@@](C)(O)C[C@@H]1CC[C@H]1[C@@H]3CC[C@H](C(=O)Cn4ncc5ncc(Br)cc54)[C@@]3(C)CC[C@@H]12

## Result
10 to 50 nM
10 to 50 nM
10 to 50 nM
